Each entry below carries its recorded pEC50.
# Test system: HIV-1 RES056 (K103N/Y181C)
# Assay: microbe, parasite or virus in culture
# Type: cell-based
# Stated Conditions: Human immunodeficiency virus 1, MT4, read-out: EC50 RES056
pEC50 is defined as minus the log10 of a concentration measured in mol/L.

molecule="Cc1cc(C#N)cc(C)c1Oc1nc(Nc2ccc(C#N)cc2)nc(N)c1Br [ETR, etravirine, reference compound]" measured_endpoint=pEC50 recorded_result=7.08
molecule="Cc1cc(/C=C/C#N)cc(C)c1Oc1nc(NC2CCN(Cc3ccc(P(=O)(OCC(F)(F)F)OCC(F)(F)F)cc3)CC2)nc2ccsc12 [15e]" measured_endpoint=pEC50 recorded_result=6.13
molecule=Cc1cc(/C=C/C#N)cc(C)c1Oc1nc(NC2CCN(Cc3ccc(P(=O)(O)O)cc3)CC2)nc2ccsc12 measured_endpoint=pEC50 recorded_result=3.77

Shift focus to the following entry.
Provide only the value of recorded pEC50 for CCOP(=O)(OCC)c1ccc(CN2CCC(Nc3nc(Oc4c(C)cc(/C=C/C#N)cc4C)c4sccc4n3)CC2)cc1 [15c]
6.96
